logP values by entry
Respond using a number only.

Below, 6 molecules whose answers are already recorded.
> print(dat)
                       cpd.smiles  observation.type  test.result
1  NNC(=O)Nc1ccc([N+](=O)[O-])cc1              logP        -0.18
2    NNC(=O)Nc1ccccc1[N+](=O)[O-]              logP        -0.47
3            NNC(=O)Nc1cccc(Cl)c1              logP         0.83
4            COc1cccc(NC(=O)NN)c1              logP         0.17
5             Cc1ccc(NC(=O)NN)cc1              logP         0.69
6             NNC(=O)Nc1ccc(I)cc1              logP         1.24

Which logP value is on record for NNC(=O)Nc1ccccc1O ? 0.33

Another molecule to check: NNC(=O)Nc1ccccc1C(=O)O -0.49

Quick one: NNC(=O)Nc1cccc([N+](=O)[O-])c1 -0.13

Ok, now NNC(=O)Nc1cccc(C(=O)O)c1 -0.16

Check CCOc1ccc(NC(=O)NN)cc1 too. 0.53

Similarly, NNC(=O)Nc1ccccc1Br ? 0.66

# iterate: Cc1ccccc1NC(=O)NN 0.36

And then NNC(=O)Nc1cccc(Br)c1 , what is it? 0.96

----------
assay: method code SF-AS, from DOI: 10.1002/zfch.19810210618
Attribute: logP
Output: the number by itself.

> print(dat)
                 cpd.smiles  test.result
1        COc1ccccc1NC(=O)NN        -0.15
2      NNC(=O)Nc1ccc(Br)cc1            1
3          NNC(=O)Nc1ccccc1         0.16
4  NNC(=O)Nc1ccc(C(=O)O)cc1        -0.21
5        NNC(=O)Nc1ccccc1Cl         0.45
6       NNC(=O)Nc1cccc(O)c1         -0.5
7      NNC(=O)Nc1ccc(Cl)cc1         0.87
8    NNC(=O)Nc1cc(Cl)ccc1Cl         1.07

Suppose we examine the molecule COc1ccc(NC(=O)NN)cc1 ; what logP value has been reported? 0.17

Do the same for Cc1cccc(NC(=O)NN)c1 please 0.68

Note, next up: NNC(=O)Nc1ccc(O)cc1 -0.55

Now try NNC(=O)Nc1cccc2ccccc12 . 0.9
